From: ChEMBL document CHEMBL1128471

List of pIC50 values.
# target: Potassium-transporting ATPase (Sus scrofa, UniProt P19156)
# Sequence (P18434 whole entry): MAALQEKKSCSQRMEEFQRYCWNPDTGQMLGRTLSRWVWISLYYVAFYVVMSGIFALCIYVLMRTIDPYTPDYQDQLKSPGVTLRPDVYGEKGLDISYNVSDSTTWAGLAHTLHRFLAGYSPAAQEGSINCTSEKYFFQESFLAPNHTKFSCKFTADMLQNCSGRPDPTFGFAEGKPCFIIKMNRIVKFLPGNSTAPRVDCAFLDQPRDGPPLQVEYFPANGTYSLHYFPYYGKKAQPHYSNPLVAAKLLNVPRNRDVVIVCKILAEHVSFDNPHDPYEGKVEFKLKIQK
# Sequence (P19156 whole entry): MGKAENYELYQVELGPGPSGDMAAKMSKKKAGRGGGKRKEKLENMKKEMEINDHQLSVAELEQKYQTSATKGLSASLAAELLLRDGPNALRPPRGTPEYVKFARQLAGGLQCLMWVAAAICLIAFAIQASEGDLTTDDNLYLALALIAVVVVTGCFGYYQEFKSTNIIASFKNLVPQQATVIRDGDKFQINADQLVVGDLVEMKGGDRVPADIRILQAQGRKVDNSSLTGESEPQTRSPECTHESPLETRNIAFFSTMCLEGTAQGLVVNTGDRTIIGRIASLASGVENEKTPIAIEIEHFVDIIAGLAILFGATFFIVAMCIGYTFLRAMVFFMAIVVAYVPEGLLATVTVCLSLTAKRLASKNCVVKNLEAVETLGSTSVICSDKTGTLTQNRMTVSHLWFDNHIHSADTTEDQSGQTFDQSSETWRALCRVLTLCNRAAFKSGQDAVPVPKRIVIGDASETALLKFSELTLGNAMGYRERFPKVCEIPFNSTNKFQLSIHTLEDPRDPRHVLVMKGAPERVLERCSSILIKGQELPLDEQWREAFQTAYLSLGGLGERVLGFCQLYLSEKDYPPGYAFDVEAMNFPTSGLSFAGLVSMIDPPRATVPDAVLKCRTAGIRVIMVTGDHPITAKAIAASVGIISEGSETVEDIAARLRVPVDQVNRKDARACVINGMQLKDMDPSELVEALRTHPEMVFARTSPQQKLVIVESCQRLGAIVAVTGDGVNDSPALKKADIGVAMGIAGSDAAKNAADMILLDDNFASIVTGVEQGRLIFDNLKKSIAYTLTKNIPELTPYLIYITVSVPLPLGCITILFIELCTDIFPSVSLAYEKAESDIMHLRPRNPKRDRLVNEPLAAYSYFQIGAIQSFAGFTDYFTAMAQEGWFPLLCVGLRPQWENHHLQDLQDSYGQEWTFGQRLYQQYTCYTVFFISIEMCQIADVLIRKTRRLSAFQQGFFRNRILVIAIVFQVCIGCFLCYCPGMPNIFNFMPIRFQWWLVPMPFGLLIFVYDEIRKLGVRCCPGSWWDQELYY
# measurement protocol: Inhibition of K+ -stimulated gastric ATPase activity was measured using lyophilized gastric vesicles at pH 7
# Type: tissue-based, Stomach
pIC50 is defined as minus the log10 of a concentration measured in mol/L.

Please review the entries below; each comes with its answer.
CCCC(=O)c1cnc2c(C(C)=O)cccc2c1Nc1ccc(O)cc1C : 6.26
CCCC(=O)c1cnc2c(OC)cccc2c1Nc1c(C)cc(C)cc1C : 5.51
CCCC(=O)c1cnc2c(OC)cccc2c1Nc1cc(C)ccc1C : 5.60
CCCC(=O)c1cnc2c(C3OC3CO)cccc2c1Nc1ccccc1C (stereo in doubt; 29b) : 5.51

Now for the molecule whose pIC50 we want.
[Q] Fill blank: measured pIC50 of the molecule CCCC(=O)c1cnc2c(OC)cccc2c1Nc1ccc(N)cc1C is ____.
[A] 5.82
